System: SK-MEL-5
Assay: NCI tumour cell line growth inhibition, 48 h
Activity calls are given as the source filed them. No stated cut-off is given here; in the data, active = GI50 up to about 1.1 µM and inactive = higher.
Pick one and only one: True = active, False = inactive

Incoming: Which result was noted for this compound in the test: O=C1CC2(CCC(O)(c3ccco3)C(C(=O)c3ccco3)C2)C(=O)c2ccccc2N1 (stereo not drawn)
Outgoing: False

Incoming: Which result was noted for this compound in the test: CC(=O)Nc1ccc(-c2nnc(SCC(=O)Nc3ccc([N+](=O)[O-])cc3)o2)cc1
Outgoing: False

Incoming: Which result was noted for this compound in the test: COc1cc(Cc2nccc3cc(OC)c(OC)cc23)c(/N=N/N(C)C)cc1OC
Outgoing: False

Incoming: Which result was noted for this compound in the test: OC1CSc2nc3ccccc3n2C1 (stereo not drawn)
Outgoing: False

Incoming: Which result was noted for this compound in the test: Cc1nn(C(=O)Cc2ccccc2)c2c1C(c1ccc(N(C)C)cc1)SC(=N)N2 (stereo not drawn)
Outgoing: False

Incoming: Which result was noted for this compound in the test: CC(=O)OC12c3ccccc3C1CCCCCC21OCCCO1 (stereo not drawn)
Outgoing: False

Incoming: Which result was noted for this compound in the test: CC(=O)C1=C(C)N2C(=NC3=C(CCc4ccccc43)C2c2ccc(F)cc2)S1 (stereo not drawn)
Outgoing: False

Incoming: Which result was noted for this compound in the test: CSC(=N/N=C(\C)c1ccc(S(=O)(=O)N(C)c2ccccc2)cc1)SC
Outgoing: False

Continuing:
Incoming: Which result was noted for this compound in the test: C[N+](C)(C)C(Cc1c[nH]c(=S)[nH]1)C(=O)O (stereo not drawn)
Outgoing: False

Incoming: Which result was noted for this compound in the test: O=c1[nH]c2nc3ccccc3c(=O)n2/c1=C/c1ccco1
Outgoing: False

Incoming: Which result was noted for this compound in the test: CCOC(=O)CCC(C(=O)OCC)n1nnc2cc(Nc3c(C)[n+]([O-])c4ccc(Cl)cc4[n+]3[O-])ccc21 (stereo not drawn)
Outgoing: False

====

Tested on: K562
Experiment: NCI tumour cell line growth inhibition, 48 h
Activity calls are given as the source filed them. Cut-off read from the data, not from the text of the source: active = GI50 up to about 1.1 µM and inactive = higher.
Pick one and only one: active, inactive

Incoming: Which result was noted for this compound in the test: COc1cccc(CCN2CCN(CCCc3ccccc3)CC2)c1
Outgoing: inactive

Incoming: Which result was noted for this compound in the test: ClC1=C(Cl)C(Cl)(Cl)c2c3c(c4c(c21)C(Cl)(Cl)C(Cl)=C4Cl)C(Cl)(Cl)C(Cl)=C3Cl
Outgoing: inactive

Incoming: Which result was noted for this compound in the test: CC1(C)CC(=O)C2=C(C1)NC1=C(C(=O)CC(C)(C)C1)C2c1ccc([N+](=O)[O-])cc1
Outgoing: inactive

Incoming: Which result was noted for this compound in the test: O=S(=O)(Cc1cnc(O)nc1O)Cc1cnc(O)nc1O
Outgoing: inactive

Incoming: Which result was noted for this compound in the test: CCc1ccc(/C(C)=N/NC(N)=S)cc1
Outgoing: inactive

Incoming: Which result was noted for this compound in the test: Brc1ccc2[nH]cc(-c3csc(-c4ccccn4)n3)c2c1
Outgoing: inactive

Incoming: Which result was noted for this compound in the test: O=C1C(=O)c2cc([N+](=O)[O-])ccc2-c2ccc([N+](=O)[O-])cc21
Outgoing: active

Incoming: Which result was noted for this compound in the test: COC(=O)C1C/C(=C/N(C)C)C(=S)N1 (stereo not drawn)
Outgoing: inactive

Incoming: Which result was noted for this compound in the test: CN(C)CCNC(=O)c1cc(-c2nccn2C)nc2ccccc12
Outgoing: inactive

Incoming: Which result was noted for this compound in the test: CC(C)CCCC(C)[C@H]1CC[C@H]2N/C(=N/Cc3ccccc3)CCC[C@]12C (stereo partly drawn)
Outgoing: inactive

Continuing:
Incoming: Which result was noted for this compound in the test: COC(=O)C(CCC(=O)CCl)N1C(=O)c2ccccc2C1=O (stereo not drawn)
Outgoing: inactive

Incoming: Which result was noted for this compound in the test: CC(C(=O)N1C(=O)N(C(=O)[C@H](C)C(O)c2ccccc2)[C@H](c2ccccc2)[C@H]1c1ccccc1)[C@@H](O)c1ccccc1 (stereo partly drawn)
Outgoing: inactive

Incoming: Which result was noted for this compound in the test: COC(=O)C1=C(c2cc(OC)c(OC)c(OC)c2)OC(c2ccc3c(c2)OCO3)C1 (stereo not drawn)
Outgoing: inactive

Incoming: Which result was noted for this compound in the test: O=[N+]([O-])c1cc(Cl)ccc1S(=O)(=O)c1ccccc1
Outgoing: inactive

Incoming: Which result was noted for this compound in the test: CCOC(=O)C(=O)/C(=C/n1c(=S)[nH]c2ccc([N+](=O)[O-])cc21)C(=O)OCC
Outgoing: inactive

Incoming: Which result was noted for this compound in the test: Cc1cc(CN(Cc2ccccc2)Cc2nc3ccccc3[nH]2)c(O)c(CN(Cc2nc3ccccc3[nH]2)Cc2nc3ccccc3[nH]2)c1
Outgoing: inactive

Incoming: Which result was noted for this compound in the test: CCc1cccc(C)c1N1C(=O)C(=O)C(c2nc3ccccc3o2)/C(=N/NC(=S)NN)C1=O (stereo not drawn)
Outgoing: inactive

Incoming: Which result was noted for this compound in the test: CC(C)(C)c1ccc2c(c1)C(=O)c1ccccc1C2=O
Outgoing: inactive

Incoming: Which result was noted for this compound in the test: O=C(/C(=N\Nc1ccc([N+](=O)[O-])cc1[N+](=O)[O-])NC12CC3CC(CC(C3)C1)C2)C(Br)C(=O)c1ccccc1 (stereo not drawn)
Outgoing: inactive

Incoming: Which result was noted for this compound in the test: O=C(Cn1c2ccc(Br)cc2c2nc3ccccc3nc21)NNC(=S)NC1CCCCC1
Outgoing: inactive

Incoming: Which result was noted for this compound in the test: C[C@@]12C[C@@H](c3ccccc3O1)N1Cc3ccccc3CSC1=N2
Outgoing: inactive

====

Tested on: PC-3
Assay: NCI tumour cell line growth inhibition, 48 h
Activity calls are given as the source filed them. Cut-off read from the data, not from the text of the source: active = GI50 up to about 1.1 µM and inactive = higher.
Pick one and only one: active, inactive

Incoming: Which result was noted for this molecule in the test: CCOC(=O)C(Cc1ccc(N(CCCl)CCCl)cc1)NC(=O)C(Cc1ccccc1)NC(C)=O (centres undefined)
Outgoing: active

Incoming: Which result was noted for this molecule in the test: COc1cc(C2c3cc4c(cc3OC(Nc3ccc(C(=O)O)cc3)C2C)OCO4)cc(OC)c1OC (centres undefined)
Outgoing: active

Incoming: Which result was noted for this molecule in the test: CN(C)CCOC(=O)c1ccc(N)cc1
Outgoing: inactive

Kindly review the next molecule as well.
Incoming: Which result was noted for this molecule in the test: CCOC(=O)/C(=C/Nc1c(C)n(C)n(-c2ccccc2)c1=O)C(C)=O
Outgoing: inactive

====

Test system: HCT-15
compounds and their reported GI50

The following compounds have reported results that may help.
Incoming: Bench note: what GI50 did O=C1c2ccccc2-c2c1c(-c1ccc([N+](=O)[O-])cc1)nc1ccc3ccccc3c21 show?
Outgoing: > 100 µM

Incoming: Bench note: what GI50 did CNC(=S)NC1CCCCC1NC(=S)NC (centres undefined) show?
Outgoing: > 100 µM

Incoming: Bench note: what GI50 did CCOC(=O)C(Cc1ccc(N(CCCl)CCCl)cc1)NC(=O)C(Cc1ccccc1)NC(C)=O (centres undefined) show?
Outgoing: > 0.378 µM

Incoming: Bench note: what GI50 did CSc1c(C#N)c(N)n2c1C(=O)N(c1ccccc1)C2=S show?
Outgoing: > 100 µM

Incoming: Bench note: what GI50 did Nc1c(C(=O)Nc2ccc(C3=NCCN3)cc2)cccc1C(=O)Nc1ccc(C2=NCCN2)cc1 show?
Outgoing: > 100 µM

Continuing:
Incoming: Bench note: what GI50 did NC1C2C=CC(C2)C1C(=O)O (centres undefined) show?
Outgoing: > 100 µM

Incoming: Bench note: what GI50 did Cc1ncc([N+](=O)[O-])n1CCNC(=O)CCn1ccnc1[N+](=O)[O-] show?
Outgoing: > 100 µM

Incoming: Bench note: what GI50 did CCOC(=O)c1nc2ccccc2nc1NCc1ccc(Cl)cc1Cl show?
Outgoing: > 100 µM

Incoming: Bench note: what GI50 did OCCCc1cnco1 show?
Outgoing: > 100 µM

====

Tested on: NCI-H522
Test: NCI tumour cell line growth inhibition, 48 h
Activity calls are given as the source filed them. No stated cut-off is given here; in the data, active = GI50 up to about 1.1 µM and inactive = higher.
molecules and their reported GI50

The following molecules have reported results that may help.
Incoming: Bench note: what GI50 did CC(=O)OCC1OC(n2c(-c3ccc(N)cc3)cc(-c3ccco3)c(C#N)c2=O)C(OC(C)=O)C(OC(C)=O)C1OC(C)=O (stereo unspecified) show?
Outgoing: 8.17 µM (inactive)

Incoming: Bench note: what GI50 did O=C(CSc1nc2ccc(I)cc2c(=O)n1Cc1ccccc1)NN1C(=O)c2ccccc2C1=O show?
Outgoing: 14.9 µM (inactive)

Incoming: Bench note: what GI50 did O=C(O)c1cc2ccccc2c(Cc2c(O)c(C(=O)O)cc3ccccc23)c1O [PAMOIC ACID] show?
Outgoing: > 100 µM (inactive)

Incoming: Bench note: what GI50 did CN(C)Cc1cc(C(=O)/C=C/c2ccccc2Cl)cc(CN(C)C)c1O show?
Outgoing: 3.93 µM (inactive)

Incoming: Bench note: what GI50 did C[C@]12CC[C@@H]3c4ccccc4CC[C@H]3[C@@H]1CC[C@@H]2O show?
Outgoing: 49.2 µM (inactive)

Continuing:
Incoming: Bench note: what GI50 did Cn1cc(-c2cnc(-c3cn(C)c4ccccc34)cn2)c2ccccc21 show?
Outgoing: 1.51 µM (inactive)

Incoming: Bench note: what GI50 did CCOc1cc2c(cc1O)C(O)C[C@@H]1[C@@H]2CC[C@]2(C)[C@@H](O)CC[C@@H]12 (stereo partly specified) show?
Outgoing: 0.129 µM (active)

Incoming: Bench note: what GI50 did CC(=O)NC1CC(C(C)(C)NC(C)=O)CC=C1C (stereo unspecified) show?
Outgoing: > 100 µM (inactive)

Incoming: Bench note: what GI50 did O=C(Nc1ccc(F)cc1)c1cc2ccc(O)cc2o/c1=N\c1ccccc1F show?
Outgoing: 12.1 µM (inactive)

Incoming: Bench note: what GI50 did CCOC(=O)/C(=C/Nc1c(C)n(C)n(-c2ccccc2)c1=O)C(C)=O show?
Outgoing: > 100 µM (inactive)
